The entries below are paired with their reported viability, T/C.
- Test system: HOP-62 multicell spheroids with HUVEC/MSC, viability
- test protocol: Anticancer human tumor HOP-62 cell line growth inhibition [KRAS2];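 further: viability read after a week of compound exposure; 100% = DMSO vehicle-treated spheroids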
- condition parameters: compound 0.316 µM; stronger effect = lower value
- Description: Multicellular complex tumor spheroid response to RAS pathway inhibitors in combination with a targeted agents in patient-derived cell lines with oncogenic KRAS variants from multiple cancer types A high-throughput screen of multi-cell type tumor spheroids was designed to identify active combinations of targeted small molecules and KRAS pathway inhibitors. […] Compounds. […] If the clinical Cmax for an agent had not been determined, the highest concentration tested was 10 microM. […]
property name: viability, T/C

compound="CCNC(=O)CC1N=C(c2ccc(Cl)cc2)c2cc(OC)ccc2-n2c(C)nnc21 (stereo not given)" target_entity="HOP-62 multicell spheroids with HUVEC/MSC, viability" result="62.1% [middle of 5 runs]"
compound=Cn1nccc1Nc1nccc(-c2cc3c(s2)C(C)(C)N(CCN2CCOCC2)C3=O)n1 target_entity="HOP-62 multicell spheroids with HUVEC/MSC, viability" result="99.5% [middle of 5 runs]"
compound=CCN1CCN(Cc2ccc(Nc3ncc(F)c(-c4cc(F)c5nc(C)n(C(C)C)c5c4)n3)nc2)CC1 target_entity="HOP-62 multicell spheroids with HUVEC/MSC, viability" result="86.3% [middle of 5 runs]"
compound=COc1cc(Nc2ncc3c(n2)-c2ccc(Cl)cc2C(c2c(F)cccc2OC)=NC3)ccc1C(=O)O target_entity="HOP-62 multicell spheroids with HUVEC/MSC, viability" result="51% [middle of 5 runs]"
compound=CC1(C)CCC(CN2CCN(c3ccc(C(=O)NS(=O)(=O)c4ccc(NCC5CCOCC5)c([N+](=O)[O-])c4)c(Oc4cnc5[nH]ccc5c4)c3)CC2)=C(c2ccc(Cl)cc2)C1 target_entity="HOP-62 multicell spheroids with HUVEC/MSC, viability" result="93.6% [middle of 5 runs]"
compound=O=C(c1cc(Cc2n[nH]c(=O)c3ccccc23)ccc1F)N1CCN(C(=O)C2CC2)CC1 target_entity="HOP-62 multicell spheroids with HUVEC/MSC, viability" result="93.2% [middle of 5 runs]"
compound="CC(C)NCC(C(=O)N1CCN(c2ncnc3c2C(C)CC3O)CC1)c1ccc(Cl)cc1 (stereo not given)" target_entity="HOP-62 multicell spheroids with HUVEC/MSC, viability" result="80.4% [middle of 5 runs]"
compound=COC(=O)c1ccc2c(C(=Nc3ccc(N(C)C(=O)CN4CCN(C)CC4)cc3)c3ccccc3)c(O)[nH]c2c1 target_entity="HOP-62 multicell spheroids with HUVEC/MSC, viability" result="65.8% [middle of 5 runs]"
compound="CC(=O)OC12COC1CC(O)C1(C)C(=O)C(O)C3=C(C)C(OC(=O)C(O)C(NC(=O)OC(C)(C)C)c4ccccc4)CC(O)(C(OC(=O)c4ccccc4)C21)C3(C)C (stereo not given)" target_entity="HOP-62 multicell spheroids with HUVEC/MSC, viability" result="39.6% [middle of 5 runs]"
compound="CC1COCCN1c1cc(-c2ccnn2C)c2ccnc(-c3ccn[nH]3)c2n1 (stereo not given)" target_entity="HOP-62 multicell spheroids with HUVEC/MSC, viability" result="16.9% [middle of 5 runs]"
